METHOD NOTES: Kpuu assay (in vivo brain-to-plasma unbound partition)
MEASUREMENT CONTEXT: brain (unbound) versus plasma (unbound); intravenous infusion 4 to 24 h; unbound brain/plasma ratio; read-out: Brain Kpu, u
REPORTED METRIC: Kpuu (unbound brain-to-plasma partition coefficient)

- MOLECULE: "CC(C)Oc1nc2nc([C@@H]3CCCOC3)cn2cc1C(=O)Nc1cccn(C2CC2)c1=O (single isomer, unassigned)"
  REPORTED MEASUREMENT: 0.52
- MOLECULE: "Cc1cnc2c(NC(=O)c3cn4cc(C56COC(C)(C5)C6)nc4nc3OC(C)C)cnn2c1 [Comparator 2B, reference compound]"
  REPORTED MEASUREMENT: 0.3
- MOLECULE: "CC(C)Oc1nc2nc(C34COC(CF)(C3)C4)cn2cc1C(=O)Nc1cccn(C2CC2)c1=O"
  REPORTED MEASUREMENT: 0.22
- MOLECULE: "CC(C)Oc1nc2nc(C34COC(C)(C3)C4)cn2cc1C(=O)Nc1cccn(C2CC2)c1=O"
  REPORTED MEASUREMENT: 0.7
- MOLECULE: "CC(C)Oc1cc2nc([C@]34CC[C@](CF)(C3)OC4)cn2cc1C(=O)Nc1cccn(C2CC2)c1=O (single isomer, unassigned)"
  REPORTED MEASUREMENT: 0.49

A. CC(C)Oc1nc2nc([C@@]34CC[C@@](C)(C3)OC4)cn2cc1C(=O)Nc1cccn([C@H]2C[C@@H]2C)c1=O (single isomer, unassigned)
B. CC[C@H](C)Oc1cc2nc(C34COC(C)(C3)C4)cn2cc1C(=O)Nc1cccn(C2CC2)c1=O
Input: Two entries are listed, A and B . Which one carries the higher Kpuu (unbound brain-to-plasma partition coefficient)? Answer with the label corresponding to your selection.
Output: A

* * *

SUBJECT OF TEST: MDR1 (Homo sapiens (Human), UniProt P08183)
Sequence (P08183 whole entry): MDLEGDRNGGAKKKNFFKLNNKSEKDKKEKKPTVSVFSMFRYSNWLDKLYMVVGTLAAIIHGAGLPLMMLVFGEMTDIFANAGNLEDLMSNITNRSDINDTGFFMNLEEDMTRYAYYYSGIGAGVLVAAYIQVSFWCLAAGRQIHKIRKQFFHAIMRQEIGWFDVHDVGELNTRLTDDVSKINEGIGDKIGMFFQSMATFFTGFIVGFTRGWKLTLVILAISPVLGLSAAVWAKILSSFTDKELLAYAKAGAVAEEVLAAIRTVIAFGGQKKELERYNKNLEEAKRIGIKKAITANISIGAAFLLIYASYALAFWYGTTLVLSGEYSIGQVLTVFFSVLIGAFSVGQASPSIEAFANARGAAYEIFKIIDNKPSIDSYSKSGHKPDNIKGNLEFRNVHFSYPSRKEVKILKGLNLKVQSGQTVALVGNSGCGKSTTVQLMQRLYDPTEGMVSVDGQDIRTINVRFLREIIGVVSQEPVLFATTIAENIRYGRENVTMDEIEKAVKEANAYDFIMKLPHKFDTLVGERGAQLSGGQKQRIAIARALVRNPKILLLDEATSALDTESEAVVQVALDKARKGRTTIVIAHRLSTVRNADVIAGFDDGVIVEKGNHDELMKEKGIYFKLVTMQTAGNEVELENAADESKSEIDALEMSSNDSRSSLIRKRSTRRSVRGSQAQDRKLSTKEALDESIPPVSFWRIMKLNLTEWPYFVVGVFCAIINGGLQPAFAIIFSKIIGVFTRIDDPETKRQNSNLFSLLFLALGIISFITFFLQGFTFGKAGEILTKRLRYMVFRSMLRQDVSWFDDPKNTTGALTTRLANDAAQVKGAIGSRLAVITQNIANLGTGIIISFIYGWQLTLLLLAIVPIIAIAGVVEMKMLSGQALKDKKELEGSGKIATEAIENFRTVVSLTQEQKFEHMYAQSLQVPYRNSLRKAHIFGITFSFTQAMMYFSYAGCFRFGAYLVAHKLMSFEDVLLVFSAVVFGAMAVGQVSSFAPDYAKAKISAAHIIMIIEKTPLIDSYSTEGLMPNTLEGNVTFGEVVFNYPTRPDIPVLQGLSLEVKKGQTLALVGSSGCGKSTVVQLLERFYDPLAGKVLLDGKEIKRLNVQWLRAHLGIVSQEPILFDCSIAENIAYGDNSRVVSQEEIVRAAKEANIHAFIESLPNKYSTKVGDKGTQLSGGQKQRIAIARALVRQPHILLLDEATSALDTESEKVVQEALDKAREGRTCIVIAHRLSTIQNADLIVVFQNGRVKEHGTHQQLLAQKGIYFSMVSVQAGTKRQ
METHOD NOTES: in vitro
MEASUREMENT CONTEXT: MDCK-MDR1
REPORTED METRIC: efflux ratio at 120 min, 1 μM

- MOLECULE: "CC(C)Oc1c(C(=O)Nc2cccn([C@H]3C[C@H]3F)c2=O)cn2cc([C@]34CC[C@](C)(C3)OC4)nc2c1F (single isomer, unassigned) [Example 127]"
  SUBJECT OF TEST: "MDR1 (Homo sapiens (Human), UniProt P08183)"
  efflux ratio at 120 min, 1 μM: 3.4

a. CC(C)Oc1cc2nc([C@@]34CC[C@@](C)(C3)OC4)cn2cc1C(=O)Nc1cccn(C2CC2)c1=O (single isomer, unassigned) [Example 4]
b. CC(C)Oc1cc2nc([C@@]34CC[C@@](C)(C3)OC4)cn2cc1C(=O)Nc1cccn(C2C[C@H]2C)c1=O (stereo partly drawn) [Example 98]
Input: Looking at a and b , which one comes out lower in efflux ratio at 120 min, 1 μM terms? Answer with the label corresponding to your selection.
Output: b

* * *

Structures can show the parent of a compound that is named as a salt.
Lab note: IC50 readings collected with IRAK4 (Homo sapiens (Human)) for the following compounds.
Sequence (Q9NWZ3 whole entry): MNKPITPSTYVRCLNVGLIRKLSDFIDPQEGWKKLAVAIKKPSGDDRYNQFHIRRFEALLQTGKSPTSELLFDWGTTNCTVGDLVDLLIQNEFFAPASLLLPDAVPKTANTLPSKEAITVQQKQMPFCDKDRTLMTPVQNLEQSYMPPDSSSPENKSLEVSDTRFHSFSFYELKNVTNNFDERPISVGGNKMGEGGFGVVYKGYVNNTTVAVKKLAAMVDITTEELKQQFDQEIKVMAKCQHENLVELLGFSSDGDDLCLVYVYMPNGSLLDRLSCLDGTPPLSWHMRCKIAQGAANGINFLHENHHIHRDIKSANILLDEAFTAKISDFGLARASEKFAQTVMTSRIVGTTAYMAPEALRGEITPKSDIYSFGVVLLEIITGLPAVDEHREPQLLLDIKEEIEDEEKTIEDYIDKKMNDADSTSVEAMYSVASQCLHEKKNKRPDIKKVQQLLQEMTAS
REPORTED METRIC: IC50 (nM)

Answered cases to consult:
- COMPOUND: "CC(C)Oc1nc2nc([C@@]34CC[C@@](C)(C3)OC4)cn2cc1C(=O)Nc1cccn(C)c1=O [Comparator 4D, reference compound]"
  REPORTED MEASUREMENT: 0.5
- COMPOUND: "CC[C@@H](C)Oc1cc2nc([C@@]34CC[C@@](C)(C3)OC4)cn2cc1C(=O)Nc1cccn(C2CC2)c1=O (single isomer, unassigned)"
  REPORTED MEASUREMENT: 0.9
- COMPOUND: "CC(C)Oc1cc2nc([C@@]34CC[C@@](C)(C3)OC4)cn2cc1C(=O)Nc1cccn([C@@H]2C[C@@H]2C)c1=O [Example 183, trifluoroacetate]"
  REPORTED MEASUREMENT: 15.4
- COMPOUND: "Cc1cnc2c(NC(=O)c3cn4cc(C56COC(C)(C5)C6)nc4cc3OC(C)C)cnn2c1 [Comparator 1B, reference compound]"
  REPORTED MEASUREMENT: 0.2
- COMPOUND: "CC(C)Oc1nc2nc([C@]34CC[C@](C)(C3)OC4)cn2cc1C(=O)Nc1cccn([C@H]2C[C@H]2C)c1=O (single isomer, unassigned) [Example 186, trifluoroacetate]"
  REPORTED MEASUREMENT: 0.2
- COMPOUND: "CC(C)Oc1c(C(=O)Nc2cccn([C@H]3C[C@H]3F)c2=O)cn2cc([C@@]34CC[C@@](C)(C3)OC4)nc2c1F (single isomer, unassigned)"
  REPORTED MEASUREMENT: 0.5
- COMPOUND: "CC[C@@H](C)Oc1nc2nc([C@@]34CC[C@@](C)(C3)OC4)cn2cc1C(=O)Nc1cccn(C2CC2)c1=O"
  REPORTED MEASUREMENT: 0.8
- COMPOUND: "CC(C)Oc1cc2nc(C34CCC(C)(CC3)OC4)cn2cc1C(=O)Nc1cccn(C2CC2)c1=O"
  REPORTED MEASUREMENT: 0.2

I. CC(C)Oc1nc2nc([C@@]34CC[C@@](C)(C3)OC4)cn2cc1C(=O)Nc1cccn([C@@H]2C[C@H]2C)c1=O (single isomer, unassigned)
II. CC(C)Oc1c(C(=O)Nc2cccn(C3CC3)c2=O)cn2cc(C34COC(C)(C3)C4)nc2c1F
III. CC[C@H](C)Oc1cc2nc(C34COC(C)(C3)C4)cn2cc1C(=O)Nc1cccn([C@@H]2C[C@@H]2F)c1=O (single isomer, unassigned)
IV. Cc1cnc2c(NC(=O)c3cn4cc(C56CCC(C)(CC5)OC6)nc4nc3OC(C)C)cnn2c1 [Comparator 6B, reference compound]
Input: Which order do these items take when sorted by rising IC50? List them. Reply with the item labels sorted in the order that was asked for.
Output: IV, I, II, III

* * *

SUBJECT OF TEST: IRAK4 (Homo sapiens (Human))
REPORTED METRIC: IC50 (nM)

P. C[C@H](Oc1cc2nc(C34COC(C)(C3)C4)cn2cc1C(=O)Nc1cccn(C2C[C@H]2F)c1=O)C(F)F (stereo partly drawn) [Example 184]
Q. CC(C)Oc1cc2nc([C@]34CC[C@H](C3)OC4)cn2cc1C(=O)Nc1cccn(C2CC2)c1=O (single isomer, unassigned) [Example 40]
Input: Looking at P and Q , which one comes out lower in IC50 terms? Answer with the label corresponding to your selection.
Output: P

* * *

METHOD NOTES: Kinetic solubility assay (CLND), pH 6.8
Type: physicochemical
MEASUREMENT CONTEXT: aqueous buffer, kinetic from dmso stock; potassium phosphate buffer pH 6.8, 2% DMSO, 24 hours at ambient temperature
Counter-ions that a name gives are not always drawn.
REPORTED METRIC: solubility kinetic at 24 h (µg/mL)

Answered cases to consult:
- COMPOUND: "CC(C)Oc1cc2nc(C34COC(C)(C3)C4)cn2cc1C(=O)Nc1cccn(C2CC2)c1=O"
  solubility kinetic at 24 h [µg/mL]: 58
- COMPOUND: "CC(C)Oc1nc2nc(C34COC(C)(C3)C4)cn2cc1C(=O)Nc1cccc(C(F)F)n1 [Comparator 2A, reference compound]"
  solubility kinetic at 24 h [µg/mL]: 2.4
- COMPOUND: "CC(C)Oc1cc2nc(C34COC(C)(C3)C4)cn2cc1C(=O)Nc1cccn([C@@H]2C[C@H]2F)c1=O (single isomer, unassigned)"
  solubility kinetic at 24 h [µg/mL]: 37.2
- COMPOUND: "CC[C@H](C)Oc1nc2nc(C34COC(C)(C3)C4)cn2cc1C(=O)Nc1cccn([C@@H]2C[C@@H]2F)c1=O (mixture of isomers)"
  solubility kinetic at 24 h [µg/mL]: 72.5

a. CC(C)Oc1nc2nc([C@]34CC[C@](CF)(C3)OC4)cn2cc1C(=O)Nc1cccn(C2CC2)c1=O (single isomer, unassigned)
b. CC(C)Oc1cc2nc([C@]34CC[C@](C)(C3)OC4)cn2cc1C(=O)Nc1ccnn(C2CC2)c1=O
c. CC(C)Oc1nc2nc([C@@]34CC[C@@](C)(C3)OC4)cn2cc1C(=O)Nc1cccn([C@H]2C[C@@H]2F)c1=O (single isomer, unassigned)
Input: Which order do these items take when sorted by rising solubility kinetic at 24 h? List them. Reply with the item labels sorted in the order that was asked for.
Output: a, b, c
(a: 9 µg/mL, b: 40.4 µg/mL, c: 73 µg/mL)

a. CC(C)Oc1cc2nc([C@H]3COCCO3)cn2cc1C(=O)Nc1cccn(C2CC2)c1=O (single isomer, unassigned)
b. CC(C)Oc1cc2nc([C@]34CC[C@](C)(C3)OC4)cn2cc1C(=O)Nc1cccn(C2CC2)c1=O (single isomer, unassigned)
Input: Looking at a and b , which one comes out lower in solubility kinetic at 24 h terms? Answer with the label corresponding to your selection.
Output: a

A. CC12CC(c3cn4cc(C(=O)Nc5ccnn(C6CC6)c5=O)c(OC5CCC5)nc4n3)(CO1)C2
B. CC(C)Oc1nc2nc(C34COC(C)(C3)C4)cn2cc1C(=O)Nc1ccnn(C2CC2)c1=O
Input: Two entries are listed, A and B . Which one carries the higher solubility kinetic at 24 h? Answer with the label corresponding to your selection.
Output: B
(B: 8.9 µg/mL, A: 1.5 µg/mL)

P. CC[C@@H](C)Oc1nc2nc(C34COC(C)(C3)C4)cn2cc1C(=O)Nc1cccn(C2CC2)c1=O (single isomer, unassigned)
Q. CC(C)Oc1c(C(=O)Nc2cccn([C@H]3C[C@@H]3C)c2=O)cn2cc(C34COC(C)(C3)C4)nc2c1F
Input: Looking at P and Q , which one comes out lower in solubility kinetic at 24 h terms? Answer with the label corresponding to your selection.
Output: Q
(Q: 29.7 µg/mL, P: 67.1 µg/mL)

I. CC[C@@H](C)Oc1cc2nc([C@@]34CC[C@@](C)(C3)OC4)cn2cc1C(=O)Nc1cccn(C2CC2)c1=O (single isomer, unassigned)
II. CC(C)Oc1cc2nc(C34CCC(C)(CC3)OC4)cn2cc1C(=O)Nc1ccn(C)n1 [Comparator 5C, reference compound]
Input: Looking at I and II , which one comes out lower in solubility kinetic at 24 h terms? Answer with the label corresponding to your selection.
Output: II

I. C[C@H](Oc1cc2nc(C34COC(C)(C3)C4)cn2cc1C(=O)Nc1cccn(C2C[C@H]2F)c1=O)C(F)F (stereo partly shown)
II. CC(C)Oc1cc2nc([C@@]34CC[C@@](C)(C3)OC4)cn2cc1C(=O)Nc1cccn([C@H]2C[C@H]2C)c1=O [Example 182, trifluoroacetate]
III. CC(C)Oc1cc2nc([C@@H]3COCCO3)cn2cc1C(=O)Nc1cccn(C2CC2)c1=O (single isomer, unassigned)
IV. CC(C)Oc1nc2nc([C@@]34CC[C@@](C)(C3)OC4)cn2cc1C(=O)Nc1ccn(C)n1 (single isomer, unassigned) [Comparator 4C, reference compound]
Input: Which order do these items take when sorted by rising solubility kinetic at 24 h? List them. Reply with the item labels sorted in the order that was asked for.
Output: III, II, IV, I
(III: 6.1 µg/mL, II: 31.8 µg/mL, IV: 51.3 µg/mL, I: 73.4 µg/mL)

I. CC(C)Oc1cc2nc([C@@]34CC[C@@](C)(C3)OC4)cn2cc1C(=O)Nc1cccn([C@@H]2C[C@H]2F)c1=O
II. CC(C)Oc1cc2nc(C34COC(C)(C3)C4)cn2cc1C(=O)Nc1cccn([C@H]2C[C@@H]2F)c1=O (single isomer, unassigned)
Input: Looking at I and II , which one comes out lower in solubility kinetic at 24 h terms? Answer with the label corresponding to your selection.
Output: II
(II: 35.8 µg/mL, I: 55.6 µg/mL)
